- assay_target: T1, thyroid stimulating hormone receptor (full length human TSHR) (human, UniProt P16473 22-764)
- T1 construct: Full length TSHR coated onto plastic tubes (TSHR coated tubes, as in WO2004/050708A2); also called TSH receptor
- run_description: competitor ^125I-K1-70 IgG, TSHR coated tubes; 100 µg/mL in assay buffer
quantity_measured: Inhibition of binding (%)
# value in %; strip the unit string

For K1-18 Fab (Fab, V domains shown) VH: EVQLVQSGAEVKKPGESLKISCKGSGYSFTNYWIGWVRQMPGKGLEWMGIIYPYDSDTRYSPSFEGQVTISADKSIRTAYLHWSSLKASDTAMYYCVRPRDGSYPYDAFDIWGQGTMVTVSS VL: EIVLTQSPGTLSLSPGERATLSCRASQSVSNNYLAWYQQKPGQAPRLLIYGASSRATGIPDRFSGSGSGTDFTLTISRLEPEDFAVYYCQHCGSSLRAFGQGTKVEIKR , write its Inhibition of binding (%). 86
